Tested on: Escherichia coli IAI1
protocol: growth (OD595) fold change vs plate DMSO controls (fold change (ratio)); higher = more growth
particulars: incubation time: 27 h, anaerobic, 37 °C
Structures can show the parent of a compound that is named as a salt.
Decide by growth: equal to or exceeding 1 means MET, less means NOT MET.

>  <compound>
CCN1CCN(c2cc3c(cc2F)c(=O)c(C(=O)O)cn3C2CC2)CC1 [Enrofloxacin] (20 µM)

>  <discreteLabel>
NOT MET

$$$$
>  <compound>
Nc1c2c(nc3ccccc13)CCCC2 [Tacrine hydrochloride] (20 µM)

>  <discreteLabel>
NOT MET

$$$$
>  <compound>
COc1ccccc1OCC(O)CO (stereo unspecified) [Guaifenesin] (20 µM)

>  <discreteLabel>
NOT MET

$$$$
>  <compound>
C/C(=C\C(=O)OCCCCCCCCC(=O)O)C[C@@H]1OC[C@H](C[C@@H]2O[C@H]2[C@@H](C)[C@H](C)O)[C@@H](O)[C@H]1O [Mupirocin] (20 µM)

>  <discreteLabel>
NOT MET

$$$$
>  <compound>
Cc1ccc2c([nH]c(=O)c3c(=O)cc(C(=O)OCCC(C)C)oc32)c1C [Repirinast] (20 µM)

>  <discreteLabel>
MET

$$$$
>  <compound>
CC(C)OC(=O)C(C)(C)Oc1ccc(C(=O)c2ccc(Cl)cc2)cc1 [Fenofibrate] (20 µM)

>  <discreteLabel>
MET

$$$$
>  <compound>
Cc1cc2c(cc1S(N)(=O)=O)S(=O)(=O)CCC2 [Meticrane] (20 µM)

>  <discreteLabel>
MET

$$$$

Source: the supplement of paper PMC12494721
